tested on: PcAAE2; test: coupled NADH oxidation assay; format: biochemical, Pogostemon cablin; conditions: 1 mM CoA, 5 mM ATP, 10 mM MgCl2, pH 7.5, 30°C
Simple rule here: Km less than 200 µM is rule met, otherwise rule not met.

Input line: For CC(C)CCCC(=O)O , is the recorded Km below the cut-off of 200 µM?
Output line: rule met

Input line: For CC(C)CC(=O)O , is the recorded Km below the cut-off of 200 µM?
Output line: rule not met

Input line: For CCCC(=O)O , is the recorded Km below the cut-off of 200 µM?
Output line: rule not met

Input line: For CC(C)CCC(=O)O , is the recorded Km below the cut-off of 200 µM?
Output line: rule met

Input line: For CCCCCCC(=O)O , is the recorded Km below the cut-off of 200 µM?
Output line: rule met

Input line: For CCCCC(=O)O , is the recorded Km below the cut-off of 200 µM?
Output line: rule met

Input line: For CCCCCC(=O)O , is the recorded Km below the cut-off of 200 µM?
Output line: rule met
